- Test system: E. coli
- Test protocol: MIC broth microdilution (CLSI)
- Assay type: cell-based
- Settings: Escherichia coli, strain NECO0244, AAC(6')-Ib; read-out: Activity (MIC)
MIC overview

Value of measured MIC for the entry NCC[C@H](O)C(=O)N[C@@H]1[C@@H](O)[C@H](N)[C@@H](O[C@H]2O[C@H](CN)CC[C@H]2N)[C@H](O[C@@H]2O[C@H](CO)[C@@H](O[C@H]3O[C@@H](CN)[C@@H](O)[C@H](O)[C@H]3N)[C@H]2O)[C@H]1O : < 16 µg/mL

Value of measured MIC for the entry CN[C@@H](C)[C@@H]1CC[C@@H](N)[C@@H](O[C@@H]2[C@@H](N)[C@H](O)[C@@H](NC(=O)[C@@H](O)[C@H](F)CN)[C@H](O)[C@H]2O[C@@H]2O[C@H](CO)[C@@H](O[C@H]3O[C@@H](CN)[C@@H](O)[C@H](O)[C@H]3N)[C@H]2O)O1 : < 16 µg/mL

====

- Test system: E. coli
- Test protocol: MIC broth microdilution (CLSI)
- Assay type: cell-based
- Settings: Escherichia coli, strain NECO0350, AAC(2')-I; read-out: Activity (MIC)
Parameter: MIC

CN[C@@H](C)[C@@H]1CC[C@@H](N)[C@@H](O[C@@H]2[C@@H](N)[C@H](O)[C@@H](NC(=O)[C@@H](O)[C@H](F)CN)[C@H](O)[C@H]2O[C@@H]2O[C@H](CO)[C@@H](O[C@H]3O[C@@H](CN)[C@@H](O)[C@H](O)[C@H]3N)[C@H]2O)O1 [Compound 7]    < 16 µg/mL

Value of measured MIC for the entry NC[C@@H]1CC[C@@H](N)[C@@H](O[C@@H]2[C@@H](N)[C@H](O)[C@@H](NC(=O)[C@@H](O)[C@H](F)CN)[C@H](O)[C@H]2O[C@@H]2O[C@H](CO)[C@@H](O[C@H]3O[C@@H](CN)[C@@H](O)[C@H](O)[C@H]3N)[C@H]2O)O1 [Compound 1] : < 16 µg/mL

Value of measured MIC for the entry C[C@H](N)[C@@H]1CC[C@@H](N)[C@@H](O[C@@H]2[C@@H](N)[C@H](O)[C@@H](N)[C@H](O)[C@H]2O[C@@H]2O[C@H](CO)[C@@H](O[C@H]3O[C@@H](CN)[C@@H](O)[C@H](O)[C@H]3N)[C@H]2O)O1 [Compound 8] : < 16 µg/mL

Value of measured MIC for the entry C[C@@H](N)[C@@H]1CC[C@@H](N)[C@@H](O[C@@H]2[C@@H](N)[C@H](O)[C@@H](NC(=O)[C@@H](O)[C@H](F)CN)[C@H](O)[C@H]2O[C@@H]2O[C@H](CO)[C@@H](O[C@H]3O[C@@H](CN)[C@@H](O)[C@H](O)[C@H]3N)[C@H]2O)O1 [Compound 4] : < 16 µg/mL

====

MIC overview
- System: K. aerogenes
- Test protocol: MIC broth microdilution (CLSI)
- Type: cell-based
- Settings: Klebsiella aerogenes; strain AEAE1042, MDR Clinical isolate (CDC CRE panel), CDC AR Bank 0161

Worked set:
NCC[C@H](O)C(=O)N[C@@H]1[C@@H](O)[C@H](N)[C@@H](O[C@H]2O[C@H](CN)CC[C@H]2N)[C@H](O[C@@H]2O[C@H](CO)[C@@H](O[C@H]3O[C@@H](CN)[C@@H](O)[C@H](O)[C@H]3N)[C@H]2O)[C@H]1O [Compound 2]    < 16 µg/mL
NC[C@@H]1CC[C@@H](N)[C@@H](O[C@@H]2[C@@H](N)[C@H](O)[C@@H](NC(=O)[C@@H](O)[C@H](F)CN)[C@H](O)[C@H]2O[C@@H]2O[C@H](CO)[C@@H](O[C@H]3O[C@@H](CN)[C@@H](O)[C@H](O)[C@H]3N)[C@H]2O)O1 [Compound 1]    < 16 µg/mL
C[C@H](N)[C@@H]1CC[C@@H](N)[C@@H](O[C@@H]2[C@@H](N)[C@H](O)[C@@H](NC(=O)[C@@H](O)CCN)[C@H](O)[C@H]2O[C@@H]2O[C@H](CO)[C@@H](O[C@H]3O[C@@H](CN)[C@@H](O)[C@H](O)[C@H]3N)[C@H]2O)O1 [Compound 6]    < 16 µg/mL

Then there is this molecule:
Value of measured MIC for the entry C[C@H](N)[C@@H]1CC[C@@H](N)[C@@H](O[C@@H]2[C@@H](N)[C@H](O)[C@@H](NC(=O)[C@@H](O)[C@H](F)CN)[C@H](O)[C@H]2O[C@@H]2O[C@H](CO)[C@@H](O[C@H]3O[C@@H](CN)[C@@H](O)[C@H](O)[C@H]3N)[C@H]2O)O1 [Compound 3] : < 16 µg/mL
